Point increase, percentage of initial force that was restored by entry:
# Test system: isolated rat soleus muscles exposed to tubocurarine
# Procedure summary: Recovery of nerve-stimulated contractile force in isolated rat soleus nerve-muscle preparation after tubocurarine
# Protocol conditions: test compound 10 μM; tubocurarine 115 nM; after 40 mins of compound exposure
Give a bare numeral; the unit % is implied.

COc1c(Br)cc(C)c(C)c1C(=O)O | 29
CSc1c(Cl)cc(C)c(C)c1C(=O)O | 24
Cc1cc(Cl)c(OCF)c(C(=O)O)c1C | 21
COc1c(Cl)cc(C)c(Cl)c1C(=O)O | 28

Then this compound:
Fill blank: measured Point increase, percentage of initial force that was restored of the compound Cc1cc(Cl)c(OC(F)(F)F)c(C(=O)O)c1C is ____.
23
